Conditions: in acetic acid, 299.15 K
quantity.kind: solubility (mole fraction)

{"chem.smiles": "O=C1/C(=C/c2ccc(O)cc2)CCC/C1=C\\c1ccc(O)cc1", "observed": 0.0032}

====

Settings: in methanol, 303.15 K

{"chem.smiles": "O=C1/C(=C/c2ccc(O)cc2)CCC/C1=C\\c1ccc(O)cc1", "solubility (mole fraction)": 0.0041}

====

Settings: in ethyl acetate, 299.15 K

{"chem.smiles": "O=C1/C(=C/c2ccc(O)cc2)CCC/C1=C\\c1ccc(O)cc1", "solubility (mole fraction)": 0.0021}

====

Conditions: in DMF, 328.15 K
quantity.kind: solubility (mole fraction)

{"chem.smiles": "O=C1/C(=C/c2ccc(O)cc2)CCC/C1=C\\c1ccc(O)cc1", "observed": 0.106}
